- tested target: T1, his-tagged cTfR1 (Acro Biosystems p/n TFR-C524a) (cynomolgus monkey, UniProt H9EXL1 89-760 (rhesus entry))
- T1 construct: Bought reagent of the SPR assay
- T1 sequence (chain, as listed by the source): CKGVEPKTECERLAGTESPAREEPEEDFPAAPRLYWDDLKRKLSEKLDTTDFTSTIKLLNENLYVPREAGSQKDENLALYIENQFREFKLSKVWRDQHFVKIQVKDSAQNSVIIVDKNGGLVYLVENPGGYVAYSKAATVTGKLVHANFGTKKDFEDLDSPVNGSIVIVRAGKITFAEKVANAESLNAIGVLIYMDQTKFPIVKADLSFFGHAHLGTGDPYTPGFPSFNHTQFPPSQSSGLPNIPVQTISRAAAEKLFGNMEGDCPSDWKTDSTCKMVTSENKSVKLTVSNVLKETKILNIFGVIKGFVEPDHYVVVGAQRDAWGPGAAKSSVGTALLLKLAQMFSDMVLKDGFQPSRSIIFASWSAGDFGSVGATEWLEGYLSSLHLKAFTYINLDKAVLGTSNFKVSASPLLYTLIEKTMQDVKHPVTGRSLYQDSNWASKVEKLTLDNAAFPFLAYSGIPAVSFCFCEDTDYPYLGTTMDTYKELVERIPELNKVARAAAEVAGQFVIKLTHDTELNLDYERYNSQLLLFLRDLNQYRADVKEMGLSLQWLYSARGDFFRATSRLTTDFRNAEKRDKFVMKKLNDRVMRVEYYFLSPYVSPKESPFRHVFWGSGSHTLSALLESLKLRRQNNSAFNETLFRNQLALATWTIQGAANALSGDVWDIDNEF
- experimental protocol: SPR, Biacore X100, His-tagged TfR1 captured by anti-His
observable: kon (M⁻¹ s⁻¹)
Respond with the bare value in M⁻¹ s⁻¹.

Just so you know, measured kon for Fab0060 (Fab, V domains shown) VH: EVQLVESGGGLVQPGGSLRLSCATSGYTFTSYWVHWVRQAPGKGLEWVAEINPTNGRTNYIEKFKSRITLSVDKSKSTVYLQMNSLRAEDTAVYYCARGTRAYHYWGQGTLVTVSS VL: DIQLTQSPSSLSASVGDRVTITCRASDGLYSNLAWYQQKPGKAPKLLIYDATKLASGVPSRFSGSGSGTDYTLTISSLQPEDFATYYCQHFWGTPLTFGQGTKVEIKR came out at 1.32e+06

Just so you know, measured kon for Fab0073 (Fab, V domains shown) VH: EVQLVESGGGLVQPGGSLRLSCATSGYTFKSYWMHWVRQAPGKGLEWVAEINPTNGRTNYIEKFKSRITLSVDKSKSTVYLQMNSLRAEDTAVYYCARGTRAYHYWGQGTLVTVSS VL: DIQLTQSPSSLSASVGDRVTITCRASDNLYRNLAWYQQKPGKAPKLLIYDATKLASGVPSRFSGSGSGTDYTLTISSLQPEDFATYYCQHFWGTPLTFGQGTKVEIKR came out at 2.38e+06

Just so you know, measured kon for Fab0062 (Fab, V domains shown) VH: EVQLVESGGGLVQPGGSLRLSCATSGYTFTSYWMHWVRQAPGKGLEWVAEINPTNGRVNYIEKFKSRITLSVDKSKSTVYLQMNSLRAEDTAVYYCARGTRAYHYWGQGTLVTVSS VL: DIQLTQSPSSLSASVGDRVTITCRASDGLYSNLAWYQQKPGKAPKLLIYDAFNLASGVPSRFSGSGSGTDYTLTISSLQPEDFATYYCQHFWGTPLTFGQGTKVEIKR came out at 1.6e+06

Just so you know, measured kon for Fab0061 (Fab, V domains shown) VH: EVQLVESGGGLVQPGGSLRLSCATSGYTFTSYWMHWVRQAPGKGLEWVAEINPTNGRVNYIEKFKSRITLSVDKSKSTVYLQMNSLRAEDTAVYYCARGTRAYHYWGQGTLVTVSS VL: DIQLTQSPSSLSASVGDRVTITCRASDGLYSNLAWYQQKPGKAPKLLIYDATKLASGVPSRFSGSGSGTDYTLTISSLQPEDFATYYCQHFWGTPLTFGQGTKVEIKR came out at 2.11e+06

Just so you know, measured kon for Fab0074 (Fab, V domains shown) VH: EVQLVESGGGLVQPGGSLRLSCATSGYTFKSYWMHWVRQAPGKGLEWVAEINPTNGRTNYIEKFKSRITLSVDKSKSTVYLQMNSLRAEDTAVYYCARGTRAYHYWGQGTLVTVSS VL: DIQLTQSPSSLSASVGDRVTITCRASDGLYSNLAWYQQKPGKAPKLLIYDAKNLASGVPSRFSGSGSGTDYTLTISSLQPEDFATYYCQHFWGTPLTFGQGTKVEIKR came out at 2.44e+06

Data provenance: patent US20260191981A1
